system-name: GST-tagged ROR gamma ligand binding domain (LBD) (Homo sapiens, UniProt P51449)
Construct: purchased Invitrogen
Sequence (P51449 269-508 limits assumed): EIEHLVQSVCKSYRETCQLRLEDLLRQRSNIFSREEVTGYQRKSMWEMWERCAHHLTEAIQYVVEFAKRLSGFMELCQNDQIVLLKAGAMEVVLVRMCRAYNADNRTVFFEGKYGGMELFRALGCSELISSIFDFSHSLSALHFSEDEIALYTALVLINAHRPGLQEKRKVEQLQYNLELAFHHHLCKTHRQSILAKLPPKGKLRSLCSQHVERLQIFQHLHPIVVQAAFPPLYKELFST
assay-notes: TR-FRET assay for ROR gamma (LanthaScreen co-activator peptide recruitment)
Format: biochemical
condition: compound concentration 10 μM; TR-FRET ratio 520/495, percent of control
Each entry below carries its recorded inhibition at 10 µM.
endpoint: inhibition at 10 µM (%)

# compound, result-unit, test-result
records = [
    ("CCC(F)(F)c1ccc(CC(=O)Nc2ccc(-c3nccnc3-c3ccncc3)cc2)cc1 [Example 17]", "%", 74.4),
    ("CCC(F)(F)c1ccc(CC(=O)Nc2ccc(-c3nccnc3OC(C)c3ccccc3)cc2)cc1 (stereo not shown) [Example 76]", "%", 87.5),
    ("CCC(F)(F)c1ccc(CC(=O)Nc2ccc(-c3nccnc3N(C)[C@@H](C)c3ccc(Cl)cc3)cc2)cc1 [Example 65]", "%", 83.2),
    ("CCc1ccccc1-c1nccnc1-c1ccc(NC(=O)Cc2ccc(C(F)(F)[C@@H](C)O)cc2)cc1 [Example 53]", "%", 77),
]
